- target.under.test: recombinant full-length Pfs48/45 (Plasmodium falciparum 3D7, UniProt Q8I6T1)
- Sequence (Q8I6T1 28-428): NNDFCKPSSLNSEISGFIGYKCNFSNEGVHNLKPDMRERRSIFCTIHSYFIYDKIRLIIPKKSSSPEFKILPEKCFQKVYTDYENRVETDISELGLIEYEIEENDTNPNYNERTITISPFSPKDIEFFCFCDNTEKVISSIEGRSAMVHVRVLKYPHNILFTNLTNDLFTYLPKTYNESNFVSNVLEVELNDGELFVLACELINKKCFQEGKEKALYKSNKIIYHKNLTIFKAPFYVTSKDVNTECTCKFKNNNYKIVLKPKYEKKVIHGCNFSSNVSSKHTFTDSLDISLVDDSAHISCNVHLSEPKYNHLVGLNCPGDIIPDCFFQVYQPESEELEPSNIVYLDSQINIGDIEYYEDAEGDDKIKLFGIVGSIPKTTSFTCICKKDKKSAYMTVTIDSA
- experimental.protocol: ELISA
- reported.conditions: both partners purified
value.type: binding result

>>> result("RUPA-61 (antibody, V domains shown, human IgG1; source: recombinant human IgG1, 293T (Protein A purified) or GenScript) VH: QVQLVQSGAEVKKPGASVKVSCKASEDTFSSYYIHWVRQAPGQGLEWMGMMNPSGGGTRYTQKFQGRVTMTSDTSTSTVYMEVISLRSEDTAVYYCARVRKRDAYNNRNWGSVFGGMDVWGQGTTVTVSS VL: QSALTQPPSASGSPGQSVSISCTGTSSDVGGHDYVSWYQHHPGKAPKLMIYEVSKRPSGVPDRFSGAKSGNTASLTVSGLQAEDEADYYCSSFGGSNNLVFGGGTKVTVV")
"binds"
>>> result("RUPA-77 (antibody, V domains shown, human IgG1; source: recombinant human IgG1, 293T (Protein A purified) or GenScript) VH: QITLKESGPTLVKPTQTLTLTCSFSGFSLTTAGVAVAWIRQPPGQALEWLGIIYWNDDKRYNPSFQNRLTIAKDTSKNQVVLTMTNMDPVDTGTYYCAHRILAAYNYFDPWGQGTLVTVSS VL: DIQMTQSPPSLSASVGDRVTITCRASQPINNFLNWYQQRPGKAPKLLIYAASRLQSGVPSRFSGSVSGTDFTLTISSLQQEDFAIYYCQQSYTSPLTFGGGTKVEIK")
"binds"
